# System: UCD52 (cells of a triple-negative basal-like breast cancer xenograft)
# Assay text: cell viability (% of vehicle); higher = less cytotoxic;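 further: PDX cells carrying CMV promoter-driven luciferase, viability read as total photon flux per second by IVIS imaging following D-luciferin, vehicle control 0.1% DMSO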
# Particulars: 10 µM; 72 h
cell viability for assorted molecules
Format: numeric value only, no unit, no commentary.

Check out these entries, answers already filled in.
[[record]]
molecule = "Nc1ccn(C2OC(CO)C(O)C2(F)F)c(=O)n1 (stereo unspecified)"
numeric_result = 101

[[record]]
molecule = "CCCS(=O)c1ccc2nc(NC(=O)OC)[nH]c2c1 (stereo unspecified) [Albendazole Oxide]"
numeric_result = 103

[[record]]
molecule = "O=C1CCCC(=O)C1C(=O)c1ccc(C(F)(F)F)cc1[N+](=O)[O-]"
numeric_result = 103

[[record]]
molecule = "Cn1c(=O)c2[nH]cnc2n(C)c1=O"
numeric_result = 103

[[record]]
molecule = "O=c1c(O)c(-c2ccc(O)c(O)c2)oc2cc(O)cc(O)c12"
numeric_result = 102


Query: Give me measured cell viability, please, for this molecule: C=C1C(CO)C(O)CC1n1cnc2c(=O)nc(N)[nH]c21.O (stereo unspecified) [Entecavir Hydrate]
Response: 103

* * *

# Tested on: HCI03 (cells of an ER-positive luminal breast cancer xenograft)
# Assay text: cell viability (% of vehicle); higher = less cytotoxic
# Particulars: 10 µM; 72 h
Below, each entry is listed with its recorded cell viability.

Consider the reported cell viability for these compounds:
[[record]]
compound = "CO[C@H]1/C=C/O[C@@]2(C)Oc3c(C)c(O)c4c(O)c(c5c(nc6cc(C)ccn65)c4c3C2=O)NC(=O)/C(C)=C\\C=C\\[C@H](C)[C@H](O)[C@@H](C)[C@H](O)[C@@H](C)[C@H](OC(C)=O)[C@@H]1C"
assay_target = "HCI03"
readout_label = "cell viability"
result = 115

[[record]]
compound = "CC(=O)C1(O)Cc2c(O)c3c(c(O)c2C(OC2CC(N)C(O)C(C)O2)C1)C(=O)c1ccccc1C3=O.Cl (stereo not given) [Idarubicin HCl]"
assay_target = "HCI03"
readout_label = "cell viability"
result = 67.6

[[record]]
compound = "CCOc1ccc2ccccc2c1C(=O)NC1C(=O)N2C1SC(C)(C)C2C(=O)[O-].O.[Na+] (stereo not given) [Nafcillin Sodium]"
assay_target = "HCI03"
readout_label = "cell viability"
result = 139

[[record]]
compound = "Cc1ccc(C(=O)N(CCCN)C(c2nc3cc(Cl)ccc3c(=O)n2Cc2ccccc2)C(C)C)cc1 (stereo not given)"
assay_target = "HCI03"
readout_label = "cell viability"
result = 41.2

[[record]]
compound = "CO[C@@]12[C@H](COC(N)=O)C3=C(C(=O)C(C)=C(N)C3=O)N1C[C@@H]1N[C@@H]12"
assay_target = "HCI03"
readout_label = "cell viability"
result = 56.9


Next compound, cell viability to be filled in.
Query: Note cell viability for the compound shown: CCCS(=O)(=O)Nc1ccc(F)c(C(=O)c2c[nH]c3ncc(-c4ccc(Cl)cc4)cc23)c1F
Response: 195

* * *

# System: WHIM30 (cells of a triple-negative basal-like breast cancer xenograft)
# Assay text: cell viability (% of vehicle); higher = less cytotoxic
# Particulars: 10 µM; 72 h
Counter-ions that a name gives are not always drawn.
cell viability for assorted molecules

[[record]]
molecule = "CC(OC1OCCN(Cc2nc(=O)[nH][nH]2)C1c1ccc(F)cc1)c1cc(C(F)(F)F)cc(C(F)(F)F)c1 (stereo not drawn) [Aprepitant]"
readout_label = "cell viability"
result = 83.6

[[record]]
molecule = "CCC(NC(=O)C(C)NC)C(=O)N1CC(O)CC1Cc1c(-c2[nH]c3cc(F)ccc3c2CC2CC(O)CN2C(=O)C(CC)NC(=O)C(C)NC)[nH]c2cc(F)ccc12 (stereo not drawn)"
readout_label = "cell viability"
result = 149


Query: Return the recorded cell viability value; entry: CC/C(=C(\c1ccccc1)c1ccc(OCCN(C)C)cc1)c1ccccc1
Response: 123

Query: Quote cell viability reported for O=c1c(O)c(-c2ccc(O)c(O)c2)oc2cc(O)cc(O)c12 please.
Response: 128

Query: Input CCC(C(C)O)n1ncn(-c2ccc(N3CCN(c4ccc(OCC5COC(Cn6cncn6)(c6ccc(F)cc6F)C5)cc4)CC3)cc2)c1=O (stereo not drawn) , output reported cell viability.
Response: 105

Query: // Input: C=C[C@@H]1C[N@@]2CC[C@H]1C[C@@H]2[C@H](O)c1ccnc2ccc(OC)cc12 . Output its cell viability only.
Response: 101

Query: For the molecule CCC1OC(=O)C(C)C(OC2CC(C)(OC)C(O)C(C)O2)C(C)C(OC2OC(C)CC(N(C)C)C2O)C(C)(O)CC(C)CN(C)C(C)C(O)C1(C)O.O.O (stereo not drawn) [Azithromycin Dihydrate] , report cell viability.
Response: 89

Query: Return cell viability for the following molecule: CC(C)c1c(C(=O)Nc2ccccc2)c(-c2ccccc2)c(-c2ccc(F)cc2)n1CCC(O)CC(O)CC(=O)[O-].CC(C)c1c(C(=O)Nc2ccccc2)c(-c2ccccc2)c(-c2ccc(F)cc2)n1CCC(O)CC(O)CC(=O)[O-].[Ca+2] (stereo not drawn)
Response: 158

Query: Report measured cell viability; entry is Nc1cccc2c1CN(C1CCC(=O)NC1=O)C2=O (stereo not drawn) [Lenalidomide (CC-5013)]
Response: 134

Query: Output cell viability of NC(CO)(CO)CO
Response: 113

Query: Tell me measured cell viability for NNC(=O)c1ccncc1 please.
Response: 114

Query: State its cell viability: COC(=O)C=CC(=O)OC [Dimethyl Fumarate]
Response: 128

Query: Fill in cell viability for record N.N.O=C([O-])C1(C(=O)[O-])CCC1.[Pt+2]
Response: 89

Query: For CC1(C)SC2C(NC(=O)C(NC(=O)N3CCN(S(C)(=O)=O)C3=O)c3ccccc3)C(=O)N2C1C(=O)O.[Na] (stereo not drawn) [Mezlocillin Sodium] , write its cell viability.
Response: 103

Query: State, in one line, measured cell viability of CCCCc1nc(Cl)c(CO)n1Cc1ccc(-c2ccccc2-c2nnn[n-]2)cc1.[K+]
Response: 118

Query: // Input: Nc1ccc(C(=O)[O-])c(O)c1.O.O.[Na+] [Sodium 4-Aminosalicylate] . Output its cell viability only.
Response: 92.3
